- Test system: Caco-2
- test-name: cell viability relative to DMSO; higher = less toxic
- condition-info: 72 h; 10 nM
attribute-measured: cell viability (%)
Reply with just the number (in %).

Ask | Quote cell viability reported for `O=C(O)c1ccc2nc(-c3cc(Cl)cc(Cl)c3)oc2c1` please.
Reply | 88

Ask | Quote cell viability reported for `O=c1ccc2ccc(O)c(O)c2o1` please.
Reply | 105

Ask | Quote cell viability reported for `O=[N+]([O-])c1cc(Cl)ccc1S(=O)(=O)N1CCN(Cc2ccccc2)CC1` please.
Reply | 94

Ask | Quote cell viability reported for O=C(O)C(F)(F)C(F)(F)C(F)(F)C(F)(F)C(F)(F)C(F)(F)C(F)(F)F [ammonium-perfluorocaprylate] please.
Reply | 96

Ask | Quote cell viability reported for CCCN1C[C@H](CSC)C[C@@H]2c3cccc4[nH]cc(c34)C[C@H]21 [pergolide] please.
Reply | 93

Ask | Quote cell viability reported for `CC(=O)Nc1cccc(Nc2ncnc(N3CCC(OCc4ccc(OC(F)(F)F)cc4)CC3)n2)c1C` please.
Reply | 97.8

Ask | Quote cell viability reported for `OC[C@H]1NC[C@@H](O)[C@@H](O)[C@@H]1O` please.
Reply | 96.8

Ask | Quote cell viability reported for `COc1cc(C(=O)N2CCC(N3CCN(C)CC3)CC2)ccc1Nc1ncc2c(n1)N(C)c1ccccc1C(=O)N2C` please.
Reply | 87.2
